Reference for the values: patent US20240352133A1

Target: Recombinant human his-tagged IGF 1R extracellular domain protein (human) (UniProt P08069)
Experiment: SPR, captured antibody, dissociation at pH 6
Mark each entry Condition met if its Kd sits below 2 nM, and Condition not met for all others.

Task: Is 2 nM strictly greater than the binder's reported Kd? binder: VRDN-03111 (antibody, V domains shown) VH: QVQLVESGGGVVQPGRSLRLSCAASGFTFSDYTMHWVRQAPGKGLEWVAIIWFDGSSKYYVDSVKGRFTISRDNSKNTLYLQMNSLRAEDTAVYYCARELGRRYFDIWGRGTLVTVSS VL: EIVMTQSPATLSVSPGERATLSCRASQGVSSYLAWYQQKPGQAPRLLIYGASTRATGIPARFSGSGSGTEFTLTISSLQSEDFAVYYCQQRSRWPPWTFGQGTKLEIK
Output: Condition not met

Task: Is 2 nM strictly greater than the binder's reported Kd? binder: VRDN-03113 (antibody, V domains shown) VH: QVQLVESGGGVVQPGRSLRLSCAASGFTFSDHYMDWVRQAPGKGLEWVAIIWFDGSSKYYADSVKGRFTISRDNSKNTLYLQMNSLRAEDTAVYYCARELGRRYFDIWGRGTLVTVSS VL: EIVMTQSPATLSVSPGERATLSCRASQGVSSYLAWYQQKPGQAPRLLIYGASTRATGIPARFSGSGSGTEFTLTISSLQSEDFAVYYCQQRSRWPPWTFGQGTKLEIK
Output: Condition not met

Task: Is 2 nM strictly greater than the binder's reported Kd? binder: VRDN-03047 (antibody, V domains shown) VH: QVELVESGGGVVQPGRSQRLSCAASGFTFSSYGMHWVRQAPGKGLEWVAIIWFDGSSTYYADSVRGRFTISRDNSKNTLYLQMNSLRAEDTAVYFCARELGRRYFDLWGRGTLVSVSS VL: EIVLTQSPATLSLSPGERATLSCRASQSVSSYHAWYQQKPGQAPRLLIYDASKRATGIPARFSGSGSGTDFTLTISSLEPEDFAVYYCQQRSKWPPWTFGQGTKVESK
Output: Condition not met

Task: Is 2 nM strictly greater than the binder's reported Kd? binder: VRDN-03098 (antibody, V domains shown) VH: QVQLVESGGGVVQPGRSLRLSCAASGFTFSSYSMHWVRQAPGKGLEWVAIIWFDGSSKYYADSVKGRFTISRDNSKNTLYLQMNSLRAEDTAVYYCARELGRRYFDIWGRGTLVTVSS VL: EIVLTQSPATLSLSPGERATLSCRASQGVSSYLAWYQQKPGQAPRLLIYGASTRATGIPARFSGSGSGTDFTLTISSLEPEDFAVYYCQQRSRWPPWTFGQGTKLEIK
Output: Condition met

Task: Is 2 nM strictly greater than the binder's reported Kd? binder: VRDN-03046 (antibody, V domains shown) VH: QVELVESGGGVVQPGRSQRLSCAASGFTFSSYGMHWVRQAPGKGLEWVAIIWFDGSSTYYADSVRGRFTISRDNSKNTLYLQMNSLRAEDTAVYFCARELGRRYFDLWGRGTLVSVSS VL: EIVLTQSPATLSLSPGERATLSCRASQSVSSHLAWYQQKPGQAPRLLIYDASKRATGIPARFSGSGSGTDFTLTISSLEPEDFAVYYCQQRSKWPPWTFGQGTKVESK
Output: Condition met
